This collection of values is drawn from patent US12103915B2.

target: TEAD4 (Homo sapiens, UniProt Q15561); test: Thermal shift assay TEAD4; type: binding
Sequence (Q15561 whole entry, species assumed): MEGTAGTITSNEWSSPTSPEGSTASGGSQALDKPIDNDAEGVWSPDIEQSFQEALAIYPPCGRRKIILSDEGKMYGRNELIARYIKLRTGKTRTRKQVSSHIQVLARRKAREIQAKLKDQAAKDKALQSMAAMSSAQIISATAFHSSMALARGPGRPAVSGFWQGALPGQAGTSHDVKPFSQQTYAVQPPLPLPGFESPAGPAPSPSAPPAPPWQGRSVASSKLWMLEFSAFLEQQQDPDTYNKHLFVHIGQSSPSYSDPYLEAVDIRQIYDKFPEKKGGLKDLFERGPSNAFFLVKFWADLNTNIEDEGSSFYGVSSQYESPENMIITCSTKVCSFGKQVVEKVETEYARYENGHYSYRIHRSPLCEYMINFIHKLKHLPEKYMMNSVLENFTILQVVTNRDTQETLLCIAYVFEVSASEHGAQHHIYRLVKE
assay_readout: TEAD4 ΔTm (°C)

Consider the following illustrative entries.
Quote TEAD4 (Homo sapiens, UniProt Q15561) TEAD4 ΔTm for entry Cn1cc2cc(Oc3ccc(C(F)(F)F)cc3)cc(C3C[C@H]3C(=O)N3[C@@H]4CC[C@H]3C[C@@H](O)C4)c2n1 (single isomer, unassigned) [Example 104] . 8.1

Quote TEAD4 (Homo sapiens, UniProt Q15561) TEAD4 ΔTm for entry Cn1cc2nc(Oc3ccc(C(F)(F)F)cc3)cc([C@@H]3C[C@H]3C(=O)N3C[C@H]4C[C@@H]3CO4)c2n1 (single isomer, unassigned) [Example 119] . 4.7

Quote TEAD4 (Homo sapiens, UniProt Q15561) TEAD4 ΔTm for entry Cn1cc2cc(Oc3ccc(C(F)(F)F)cc3)cc([C@@H]3C[C@H]3C(=O)N3CC4CC3CC4O)c2n1 (single isomer, unassigned) [Example 103a] . 9.0

Quote TEAD4 (Homo sapiens, UniProt Q15561) TEAD4 ΔTm for entry Cn1cc2cc(Oc3ccc(C(F)(F)F)cc3)cc(C3C[C@H]3C(=O)O)c2n1 (mixture of isomers) [Example 16] . 11.8

a = Cn1cc2cc(Oc3ccc(C(F)(F)F)cc3)cc(C3C[C@H]3C(=O)N3CCC[C@H]3C#N)c2n1 (single isomer, unassigned) [Example 73]
b = CN1Cc2cc(-c3ccc(C(F)(F)F)cc3)cc(C3C[C@H]3C(=O)O)c2C1=O (mixture of isomers) [Example 15]
Parameter metric = TEAD4 ΔTm. Return the lower-valued option from a and b . Your choice should be expressed through its label. b
(b: 3.7 °C, a: 12.1 °C)
